# Test system: L1210
# Test Summary: cells
# Test Parameters: Mus musculus, L1210, 48 h
Would you kindly list IC50 for each of these compounds?
Supply the numeric figure in µM, leaving out any unit text.

Q) API: value(readout= IC50, system= L1210, query= O=c1[nH]c(=O)n([C@H]2C[C@H](O)[C@@H](CO)O2)cc1-c1cn(-c2ccc(Oc3ccccc3)cc2)nn1 )
A) 0.5

Q) And for O=c1[nH]c(=O)n([C@H]2C[C@H](O)[C@@H](CO)O2)cc1-c1cn(-c2ccc(Cl)cc2)nn1 ?
A) 14.8

Q) And for CCCCc1ccc(-n2cc(-c3cn([C@H]4C[C@H](O)[C@@H](CO)O4)c(=O)[nH]c3=O)nn2)cc1 ?
A) 15

Q) And for CC(C)c1ccc(-n2cc(-c3cn([C@H]4C[C@H](O)[C@@H](CO)O4)c(=O)[nH]c3=O)nn2)cc1 ?
A) 29

Q) And for O=c1[nH]c(=O)n([C@H]2C[C@H](O)[C@@H](CO)O2)cc1-c1cnnn1-c1ccc(Br)cc1 ?
A) 61

Q) And for O=c1[nH]c(=O)n([C@H]2C[C@H](O)[C@@H](CO)O2)cc1-c1cnnn1-c1ccc(Oc2ccccc2)cc1 ?
A) 134

Q) And for O=c1[nH]c(=O)n([C@H]2C[C@H](O)[C@@H](CO)O2)cc1-c1cn(-c2ccccc2)nn1 ?
A) 204

Q) And for O=c1[nH]c(=O)n([C@H]2C[C@H](O)[C@@H](CO)O2)cc1-c1cn(-c2c(F)cccc2F)nn1 ?
A) 2.9

Q) And for CC(C)(C)c1ccc(-n2cc(-c3cn([C@H]4C[C@H](O)[C@@H](CO)O4)c(=O)[nH]c3=O)nn2)cc1 ?
A) 15

Q) And for O=c1[nH]c(=O)n([C@H]2C[C@H](O)[C@@H](CO)O2)cc1-c1cn(-c2ccc(OC(F)(F)F)cc2)nn1 ?
A) 50

Q) And for O=c1[nH]cc(F)c(=O)[nH]1 ?
A) 0.56

Q) And for O=c1[nH]c(=O)n([C@H]2C[C@H](O)[C@@H](CO)O2)cc1-c1cnnn1-c1c(F)cccc1F ?
A) 10

Q) And for CSc1ccc(-n2cc(-c3cn([C@H]4C[C@H](O)[C@@H](CO)O4)c(=O)[nH]c3=O)nn2)cc1 ?
A) 62

Q) And for O=c1[nH]c(=O)n([C@H]2C[C@H](O)[C@@H](CO)O2)cc1-c1cn(-c2ccc(Br)cc2)nn1 ?
A) 4.6

* * *

Would you kindly list EC50 for each of these compounds?
# Tested on: Human betaherpesvirus 5
# Test Summary: microbe, parasite or virus in culture
# Test Parameters: Human betaherpesvirus 5, AD169, HEL

Q) Which EC50 value belongs to O=c1[nH]c(=O)n([C@H]2C[C@H](O)[C@@H](CO)O2)cc1-c1cn(-c2ccc(Br)cc2)nn1 ?
A) 45 µM

Q) And for CCCCc1ccc(-n2cc(-c3cn([C@H]4C[C@H](O)[C@@H](CO)O4)c(=O)[nH]c3=O)nn2)cc1 ?
A) > 50 µM

Q) And for O=c1[nH]c(=O)n([C@H]2C[C@H](O)[C@@H](CO)O2)cc1-c1cn(-c2ccc(OC(F)(F)F)cc2)nn1 ?
A) > 220 µM

Q) And for O=c1[nH]c(=O)n([C@H]2C[C@H](O)[C@@H](CO)O2)cc1-c1cn(-c2ccc(Cl)cc2)nn1 ?
A) > 240 µM

Q) And for O=c1[nH]c(=O)n([C@H]2C[C@H](O)[C@@H](CO)O2)cc1-c1cn(-c2ccc(Oc3ccccc3)cc2)nn1 ?
A) 19.4 µM

Q) And for O=c1[nH]c(=O)n([C@H]2C[C@H](O)[C@@H](CO)O2)cc1-c1cn(-c2cc(F)cc(F)c2)nn1 ?
A) > 50 µM

Q) And for CC(C)(C)c1ccc(-n2cc(-c3cn([C@H]4C[C@H](O)[C@@H](CO)O4)c(=O)[nH]c3=O)nn2)cc1 ?
A) > 50 µM

Q) And for O=c1[nH]c(=O)n([C@H]2C[C@H](O)[C@@H](CO)O2)cc1-c1cn(-c2ccccc2)nn1 ?
A) > 270 µM

Q) And for O=c1[nH]c(=O)n([C@H]2C[C@H](O)[C@@H](CO)O2)cc1-c1cn(-c2ccc([N+](=O)[O-])cc2)nn1 ?
A) > 50 µM

Q) And for CC(C)c1ccc(-n2cc(-c3cn([C@H]4C[C@H](O)[C@@H](CO)O4)c(=O)[nH]c3=O)nn2)cc1 ?
A) 240 µM

Q) And for CSc1ccc(-n2cc(-c3cn([C@H]4C[C@H](O)[C@@H](CO)O4)c(=O)[nH]c3=O)nn2)cc1 ?
A) > 50 µM

Q) And for NC(=O)c1ncn([C@@H]2O[C@H](CO)[C@@H](O)[C@H]2O)n1 [RIBAVIRIN] ?
A) > 100 µM

Q) And for O=c1[nH]c(=O)n([C@H]2C[C@H](O)[C@@H](CO)O2)cc1-c1cn(-c2c(F)cccc2F)nn1 ?
A) 29 µM

* * *

# Test system: Influenza B virus
# Assay type: functional, organism-based
# Test Parameters: MDCK
Active and inactive are the calls of the source. The calls are words filed in the database; no cut-off is given here.
Readout Type: inhibition

Examples from the recorded data:
>  <Smiles String>
CC(C)c1ccc(-n2cc(-c3cn([C@H]4C[C@H](O)[C@@H](CO)O4)c(=O)[nH]c3=O)nn2)cc1

>  <Measured On>
Influenza B virus

>  <inhibition>
inactive

$$$$
>  <Smiles String>
O=c1[nH]c(=O)n([C@H]2C[C@H](O)[C@@H](CO)O2)cc1-c1cn(-c2ccc(OC(F)(F)F)cc2)nn1

>  <Measured On>
Influenza B virus

>  <inhibition>
inactive

$$$$
>  <Smiles String>
O=c1[nH]c(=O)n([C@H]2C[C@H](O)[C@@H](CO)O2)cc1-c1cn(-c2c(F)cccc2F)nn1

>  <Measured On>
Influenza B virus

>  <inhibition>
inactive

$$$$
>  <Smiles String>
O=c1[nH]c(=O)n([C@H]2C[C@H](O)[C@@H](CO)O2)cc1-c1cn(-c2ccc(Cl)cc2)nn1

>  <Measured On>
Influenza B virus

>  <inhibition>
inactive

$$$$
>  <Smiles String>
CCCCc1ccc(-n2cc(-c3cn([C@H]4C[C@H](O)[C@@H](CO)O4)c(=O)[nH]c3=O)nn2)cc1

>  <Measured On>
Influenza B virus

>  <inhibition>
inactive

$$$$

Q) Which inhibition value belongs to O=c1[nH]c(=O)n([C@H]2C[C@H](O)[C@@H](CO)O2)cc1-c1cn(-c2ccc(Oc3ccccc3)cc2)nn1 ?
A) inactive

Q) And for O=c1[nH]c(=O)n([C@H]2C[C@H](O)[C@@H](CO)O2)cc1-c1cn(-c2cc(F)cc(F)c2)nn1 ?
A) inactive

Q) And for O=c1[nH]c(=O)n([C@H]2C[C@H](O)[C@@H](CO)O2)cc1-c1cn(-c2ccc([N+](=O)[O-])cc2)nn1 ?
A) inactive

* * *

Would you kindly list CC50 at 72 h for each of these molecules?
# Test Summary: in vitro
# Test Parameters: human, HEL cells
Supply the numeric figure in µM, leaving out any unit text.

Q) Which CC50 at 72 h value belongs to O=c1[nH]c(=O)n([C@H]2C[C@H](O)[C@@H](CO)O2)cc1-c1cn(-c2ccc(OC(F)(F)F)cc2)nn1 ?
A) 47

Q) And for O=c1[nH]c(=O)n([C@H]2C[C@H](O)[C@@H](CO)O2)cc1-c1cn(-c2ccc([N+](=O)[O-])cc2)nn1 ?
A) 136

Q) And for CCCCc1ccc(-n2cc(-c3cn([C@H]4C[C@H](O)[C@@H](CO)O4)c(=O)[nH]c3=O)nn2)cc1 ?
A) 147

* * *

# Test system: Human alphaherpesvirus 2
# Test Summary: microbe, parasite or virus in culture
# Test Parameters: Human alphaherpesvirus 2, strain G, HEL
Readout Type: EC50

Q) Which EC50 value belongs to O=c1[nH]c(=O)n([C@H]2C[C@H](O)[C@@H](CO)O2)cc1-c1cn(-c2ccccc2)nn1 ?
A) > 50 µM

Q) And for NC(=O)c1ncn([C@@H]2O[C@H](CO)[C@@H](O)[C@H]2O)n1 ?
A) > 250 µM

Q) And for O=c1[nH]c(=O)n([C@H]2C[C@H](O)[C@@H](CO)O2)cc1-c1cn(-c2ccc(Cl)cc2)nn1 ?
A) > 240 µM

* * *

# Test system: HeLa
# Test Summary: cells
# Test Parameters: Homo sapiens, 96 h
Would you kindly list IC50 for each of these molecules?
Supply the numeric figure in µM, leaving out any unit text.

Q) Which IC50 value belongs to O=c1[nH]c(=O)n([C@H]2C[C@H](O)[C@@H](CO)O2)cc1-c1cn(-c2ccc(Oc3ccccc3)cc2)nn1 ?
A) 0.28

Q) And for O=c1[nH]c(=O)n([C@H]2C[C@H](O)[C@@H](CO)O2)cc1-c1cnnn1-c1ccc(Br)cc1 ?
A) 8

Q) And for O=c1[nH]c(=O)n([C@H]2C[C@H](O)[C@@H](CO)O2)cc1-c1cn(-c2ccc(Cl)cc2)nn1 ?
A) 4

Q) And for O=c1[nH]c(=O)n([C@H]2C[C@H](O)[C@@H](CO)O2)cc1-c1cn(-c2c(F)cccc2F)nn1 ?
A) 0.51

Q) And for O=c1[nH]c(=O)n([C@H]2C[C@H](O)[C@@H](CO)O2)cc1-c1cn(-c2ccc(OC(F)(F)F)cc2)nn1 ?
A) 37

Q) And for O=c1[nH]c(=O)n([C@H]2C[C@H](O)[C@@H](CO)O2)cc1-c1cnnn1-c1ccc(Oc2ccccc2)cc1 ?
A) 42

Q) And for CSc1ccc(-n2cc(-c3cn([C@H]4C[C@H](O)[C@@H](CO)O4)c(=O)[nH]c3=O)nn2)cc1 ?
A) 23
